Source: ChEMBL document CHEMBL3612058

target: UniProtKB P30542; assay: Positive allosteric enhancement of human cloned adenosine A1 receptor expressed in CHO cells assessed as inhibition of forskolin-induced cAMP accumulation at 100 nM using [3H]-cAMP by scintillation counting relative to control in presence of 1 pM of CCPA; assay type: functional, cell-based
measured_property: inhibition (%)

• COc1ccccc1Cc1c(-c2ccccc2)sc(N)c1C(=O)c1ccc(Cl)cc1 = 51
• Nc1sc(-c2ccccc2)c(Cc2ccccc2)c1C(=O)c1ccc(Cl)cc1 = 50
• Nc1sc(-c2ccccc2)c(Cc2cccc3ccccc23)c1C(=O)c1ccc(Cl)cc1 = 58
• Cc1ccc(Cc2c(-c3ccccc3)sc(N)c2C(=O)c2ccc(Cl)cc2)cc1 = 58
• COc1ccc(Cc2c(-c3ccc(F)cc3)sc(N)c2C(=O)c2ccc(Cl)cc2)cc1 = 59
• COc1ccc(Cc2c(-c3ccc(OC)cc3)sc(N)c2C(=O)c2ccc(Cl)cc2)cc1 = 50
• CCOc1ccc(Cc2sc(N)c(C(=O)c3ccc(Cl)cc3)c2-c2ccccc2)cc1 = 21
• COc1ccc(Cc2sc(N)c(C(=O)c3ccc(Cl)cc3)c2-c2ccccc2)cc1C = 30
• CC(C)Oc1ccc(Cc2sc(N)c(C(=O)c3ccc(Cl)cc3)c2-c2ccccc2)cc1 = 26
• Nc1sc(-c2ccccc2)c(Cc2ccc(F)cc2)c1C(=O)c1ccc(Cl)cc1 = 57

----------
target: Adenosine receptor A1 (Homo sapiens) (UniProt P30542); assay: Binding affinity to human adenosine A1 receptor expressed in CHO cells assessed as fold Ki shift of CCPA at 10 uM after 90 mins by [3H]-CCPA displacement assay relative to control; type: cell-based
Sequence (P30542 whole entry): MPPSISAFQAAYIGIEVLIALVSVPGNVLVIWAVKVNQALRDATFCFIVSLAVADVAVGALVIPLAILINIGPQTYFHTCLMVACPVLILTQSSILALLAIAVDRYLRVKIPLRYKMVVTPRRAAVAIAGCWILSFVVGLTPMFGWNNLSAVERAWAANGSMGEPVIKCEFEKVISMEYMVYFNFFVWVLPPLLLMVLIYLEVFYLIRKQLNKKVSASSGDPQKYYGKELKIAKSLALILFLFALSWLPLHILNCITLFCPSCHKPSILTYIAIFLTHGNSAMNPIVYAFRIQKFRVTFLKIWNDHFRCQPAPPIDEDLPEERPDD
label 1 means recorded fold change (FC) is 2 or above; label 0 means it is below 2.

* Nc1sc(Cc2ccc(C(F)(F)F)cc2)c(-c2ccccc2)c1C(=O)c1ccc(Cl)cc1 | label 0
* Cc1sc(N)c(C(=O)c2cccc(C(F)(F)F)c2)c1C | label 0
* Nc1sc(-c2ccccc2)c(Cc2ccc(C(F)(F)F)cc2)c1C(=O)c1ccc(Cl)cc1 | label 1
* Nc1sc(-c2ccc(F)cc2)c(Cc2ccc(F)cc2)c1C(=O)c1ccc(Cl)cc1 | label 1

----------
molecular target: Adenosine receptor A1 (Homo sapiens); assay: Positive allosteric enhancement of human cloned adenosine A1 receptor expressed in CHO cells assessed as inhibition of forskolin-induced cAMP accumulation at 100 nM using [3H]-cAMP by scintillation counting relative to control in presence of 1 pM of CCPA; format: functional, cell-based
Let's look at some compounds and their measured inhibition.
measured_property: inhibition (%)

- Nc1sc(-c2ccccc2)c(Cc2ccc(OC(F)(F)F)cc2)c1C(=O)c1ccc(Cl)cc1: 69
- COc1cccc(Cc2c(-c3ccccc3)sc(N)c2C(=O)c2ccc(Cl)cc2)c1: 63
- CC(C)Oc1ccc(Cc2c(-c3ccccc3)sc(N)c2C(=O)c2ccc(Cl)cc2)cc1: 67
- Nc1sc(-c2ccccc2)c(Cc2ccc(C(F)(F)F)cc2)c1C(=O)c1ccc(Cl)cc1: 66
- Nc1sc(Cc2ccc(C(F)(F)F)cc2)c(-c2ccccc2)c1C(=O)c1ccc(Cl)cc1: 24
- CSc1ccc(Cc2c(-c3ccccc3)sc(N)c2C(=O)c2ccc(Cl)cc2)cc1: 65
- Nc1sc(-c2ccc(Cl)cc2)c(Cc2ccc(Cl)cc2)c1C(=O)c1ccc(Cl)cc1: 84
- COc1ccc(-c2sc(N)c(C(=O)c3ccc(Cl)cc3)c2Cc2ccc(Cl)cc2)cc1: 48
- COc1ccc(-c2sc(N)c(C(=O)c3ccc(Cl)cc3)c2Cc2ccccc2)cc1: 47
- Cc1ccc(Cc2c(-c3ccc(Cl)cc3)sc(N)c2C(=O)c2ccc(Cl)cc2)cc1: 69
- CSc1ccc(Cc2c(-c3ccc(F)cc3)sc(N)c2C(=O)c2ccc(Cl)cc2)cc1: 55
- COc1ccc(Cc2c(-c3ccc(Cl)cc3)sc(N)c2C(=O)c2ccc(Cl)cc2)cc1: 67
- COc1ccc(Cc2c(-c3ccccc3)sc(N)c2C(=O)c2ccc(Cl)cc2)cc1C: 66
- Nc1sc(-c2ccccc2)c(Cc2ccc(Cl)cc2)c1C(=O)c1ccc(Cl)cc1: 64
- COc1ccc(Cc2sc(N)c(C(=O)c3ccc(Cl)cc3)c2-c2ccccc2)cc1: 36
- COc1ccc(Cc2c(-c3ccccc3)sc(N)c2C(=O)c2ccc(Cl)cc2)cc1: 74
- COc1ccc(Cc2c(-c3ccccc3)sc(N)c2C(=O)c2ccc(Cl)cc2)c(OC)c1: 53
- Nc1sc(Cc2cccc3ccccc23)c(-c2ccccc2)c1C(=O)c1ccc(Cl)cc1: 22
- Cc1ccc(Cc2c(-c3ccc(F)cc3)sc(N)c2C(=O)c2ccc(Cl)cc2)cc1: 62
- COc1ccc(-c2sc(N)c(C(=O)c3ccc(Cl)cc3)c2Cc2ccc(SC)cc2)cc1: 62
